Experiment: Pharmacokinetics of Compound 1 in combination with MK-3475 in subjects with various cancers
Assay type: in vivo, human
Conditions: human, plasma, oral, 50 mg, Cohort 4 (MEL), 50 mg, first dose, mean ± SD; read-out: AUC0-t
property-measured: AUC(0-t)

Given NS(=O)(=O)NCCNc1nonc1C(=NO)Nc1ccc(F)c(Br)c1 , state its recorded AUC(0-t).
1.32 µM·h

====

Assay: Pharmacokinetics of Compound 1 in combination with MK-3475 in subjects with various cancers
Assay type: in vivo, human
Conditions: human, plasma, oral, 100 mg, Cohort 5, 100 mg BID, steady state C1D8, mean ± SD
property-measured: Cmax (nM)
One number for each entry, in nM.

Given NS(=O)(=O)NCCNc1nonc1C(=NO)Nc1ccc(F)c(Br)c1 [Compound 1] , state its recorded Cmax.
905
